These data points were gathered from PubChem BioAssay (NCI).

System: HCC-2998 colon
assay protocol: NCI-60 one-dose screen, 48 h (100 = growth as untreated, 0 = no growth, -100 = all killed)
test settings: 10 µM unless noted
The panel holds about 83,000 compounds, 20% with a hit somewhere; the sample as a whole holds those more often.
observable: growth (%)

molecule	target system	result value
O=C(O)Cc1cccc(=O)c(O)c1C(=O)O	HCC-2998 colon	106
CC(C)(C)n1cc(-c2ccnc(NCCCNS(=O)(=O)c3ccccc3)c2)c(-c2cccc(O)c2)n1	HCC-2998 colon	18.5
CN(C)CCOC(=O)Nc1ccccc1Cl	HCC-2998 colon	111
CC(C)(C)OC(=O)NC(CSCc1ccccc1)C(=O)ON1C(=O)CCC1=O (configuration not stated)	HCC-2998 colon	101
CCCCNC(=O)Oc1ccc(/C(=C(\C)c2ccccc2)c2ccc(OCCN(CC)CC)cc2)cc1	HCC-2998 colon	82.6
O=C(N/N=C/C=C\c1ccccc1)C(=O)N/N=C/C=C/c1ccccc1	HCC-2998 colon	109
O=C1Nc2ccc(Cl)cc2C12Nc1cc(Cl)ccc1S2 (configuration not stated)	HCC-2998 colon	78.9
O=C(O)c1cn(C2CC2)c2cc(N3CCN(C(=O)/C=C/c4ccc(Cl)cc4)CC3)c(F)cc2c1=O	HCC-2998 colon	90.4
CN(CCCCCl)P(=O)(OCc1ccc([N+](=O)[O-])o1)C(F)(F)C[C@H](NC(=O)CNC(=O)c1ccc(N=[N+]=[N-])cc1)C(=O)NCCc1ccc(O)cc1 (some centres not stated)	HCC-2998 colon	98.4
CC(=O)Oc1csc(N(C(C)=O)c2cc(C(=O)O)cc(C(=O)O)c2)n1	HCC-2998 colon	98.6
C=CCn1c2ccccc2c2c3c(c4c5ccccc5n(CC=C)c4c21)C(=O)N(O)C3=O	HCC-2998 colon	36.5
Cc1ccc(N2CCN(C(C)C(N)=O)CC2)cc1 (configuration not stated)	HCC-2998 colon	102
Cc1ccc(-c2nc(C#N)c(S(=O)(=O)n3nc(-c4ccccc4)cc3N)o2)cc1	HCC-2998 colon	112
Cc1ccc(S(=O)(=O)c2nc(-c3ccccc3)oc2S(C)(=O)=O)cc1	HCC-2998 colon	97.4
S=C1CC(=S)NC(=S)N1	HCC-2998 colon	104
COc1ccc(-c2ccc(-c3ccc(-c4ccc(C(=N)N)cc4)s3)s2)cc1OC	HCC-2998 colon	-68.6
O=c1ccn(-c2ncnc3nc[nH]c23)cc1	HCC-2998 colon	106
O=c1cc(Cc2ccc([N+](=O)[O-])cc2)[nH]c(=O)[nH]1	HCC-2998 colon	105
CN1C(=O)N(C)C2C1NN=c1s/c(=C\C=C\c3ccccc3)c(=O)n12 (configuration not stated)	HCC-2998 colon	63.1
C=CCSc1n[nH]c(-c2cccs2)n1	HCC-2998 colon	117
COc1ccc(/C=C/c2c(C(C)=O)c(C)nc3ccccc23)cc1	HCC-2998 colon	93.3
CC1=C(C#N)C(=O)NC(C)C1 (configuration not stated)	HCC-2998 colon	79.8
Cc1ccc(S(=O)(=O)/C(=C\c2ccc(Cl)cc2)C(=O)c2ccccc2)cc1	HCC-2998 colon	107
COc1cc(C(=O)/C=C/c2c(C)n([O-])c3ccc(C(F)(F)F)cc3[n+]2=O)cc(OC)c1OC	HCC-2998 colon	105
CCC(C)/C(=C\C#N)NCCCN/C(=C/C#N)C(C)CC (configuration not stated)	HCC-2998 colon	99.1
C=C(C)[C@@H]1C[C@@H]2Cc3cc(F)ccc3N1O2	HCC-2998 colon	93.9
CCN(CC)c1ccc(/C=C2\Oc3ccc(O)c(I)c3C2=O)cc1	HCC-2998 colon	97.2
CC(C)(C)n1cc(-c2ccnc(NCCNS(=O)(=O)c3ccc(Cl)cc3)c2)c(-c2cccc(O)c2)n1	HCC-2998 colon	36.7
COc1cccc(-c2nc3sccn3c2-c2ccnc(NCCCNS(=O)(=O)c3ccc(F)cc3)c2)c1	HCC-2998 colon	61.5
O=C(Nc1ccc(NCCN2CCOCC2)nc1)c1ccc([N+](=O)[O-])cc1	HCC-2998 colon	101
COc1ccc(/C=C2\Oc3cc(OCCCN4CCCC4)ccc3C2=O)cc1	HCC-2998 colon	91.3
COc1cccc(/C=C/C(=O)Nc2cc(OC)c3c(c2)OCO3)c1	HCC-2998 colon	97
CCc1ccc(-c2ccc(=O)n(-c3ccc(S(N)(=O)=O)cc3)n2)cc1	HCC-2998 colon	53.9
COc1cc(/C=C/C(=O)N2CCN(C(=O)/C=C/c3cc(OC)c(OC)c(OC)c3)CC2)cc(OC)c1OC	HCC-2998 colon	102
COc1cc(/C=C/C(=O)c2ccc(Nc3ncnc4cc(OC)c(OC)cc34)cc2)cc(OC)c1	HCC-2998 colon	106
CCOC(=O)c1c(/N=C2\SC(=O)/C(=C\C(=O)OC)N2NC)sc2c1CCN(C(=O)OCC)C2	HCC-2998 colon	92.5
CC(C)(C)n1cc(-c2ccnc(NCCCNS(=O)(=O)c3ccc(Br)cc3)c2)c(-c2cccc(O)c2)n1	HCC-2998 colon	-56.1
CCCCCCCCCCCCCCCCNC(=O)OC(C)C	HCC-2998 colon	57.1
CC(C)(C)OC(=O)NCCc1ccc(N=C=S)cc1	HCC-2998 colon	89.9
O=C(NNC(=O)N1c2ccccc2C=Cc2ccccc21)c1ccccc1	HCC-2998 colon	114
Fc1ccc(Nc2ncnc3ccc(-c4cnc5[nH]ccc5c4)cc23)cc1Cl	HCC-2998 colon	34
COc1ccc(-c2ccc(C)n2-c2ccc(-c3nc4cc(Cl)ccc4s3)cc2)cc1	HCC-2998 colon	92.3

---

Test system: HOP-62 NSCLC
assay protocol: NCI-60 one-dose screen, 48 h (100 = growth as untreated, 0 = no growth, -100 = all killed)
test settings: 10 µM unless noted
This is part of a sample that, as a whole, favours compounds with a hit. Of some 83,000 tested, about 20% had one in any assay.
observable: growth (%)

>>> print(df.to_string())
                            molecule_smiles  observable  result_value
0  COc1ccc(-c2nc3sccn3c2/C=C/C(=O)c2cc(F)cc(F)c2)cc1      growth          85.8
1  O=[N+]([O-])c1cc(Cl)c2[nH]c3c(Cl)cc([N+](=O)[O-])cc3c2c1      growth          15.3
2  O=C(Nc1cccc(-n2cc(-c3ccncc3)c(-c3ccc(Cl)c(O)c3)n2)c1)c1ccc(N2CCOCC2)c(C(F)(F)F)c1      growth          40.4
3  O=C(Nc1ccc(NCCN2CCOCC2)nc1)c1ccc([N+](=O)[O-])cc1      growth           103
4  COc1ccc2c(c1)cn1c3ccc(OC)cc3[nH]c(=O)c21      growth          5.85
5  O=C1c2c(c3c4ccccc4n(CCCCCCBr)c3c3[nH]c4ccccc4c23)C(=O)N1O      growth          8.33
6  COc1ccc(-c2nc(SCCC(C)C)nc(Nc3ccc(F)c(Cl)c3)c2C#N)cc1      growth          88.7
7  Cc1cc(C2=NNC(=O)Cc3cc4c(cc32)OCCO4)cc(C)c1N      growth          37.4
8  CC(C)(C)n1cc(-c2ccnc(NCCCNS(=O)(=O)c3ccc(F)cc3)c2)c(-c2cccc(O)c2)n1      growth            74

---

Test system: U251 CNS
assay protocol: NCI-60 one-dose screen, 48 h (100 = growth as untreated, 0 = no growth, -100 = all killed)
test settings: 10 µM unless noted
The panel holds about 83,000 compounds, 20% with a hit somewhere; the sample as a whole holds those more often.
Collected growth values appear next to each entry.
observable: growth (%)

>>> df
                                   compound  observable  result_value
0               O=C(CCl)N(C1CCCCC1)C1CCCCC1      growth           104
1       O=[N+]([O-])c1ccc(OCCCOc2ccccc2)cc1      growth          90.7
2  Cc1nc2ncccc2nc1Nc1ccc(S(=O)(=O)Nc2cncs2)cc1      growth          97.7
3       O=C1/C(=C/c2ccccc2)Oc2ccc(O)c(I)c21      growth            93
4  O=C(Oc1ccccc1[N+](=O)[O-])C1CCCN1C(=O)OCc1ccccc1 (stereo not given)      growth          96.8
5  N[C@H]1CN(C(=O)c2cc3cc(Br)c(F)c(F)c3[nH]2)C[C@@H]1O      growth          95.9
6  O=C(/C=C/c1cc(-c2ccc3c(c2)OCO3)n[nH]1)c1ccc2c(c1)OCO2      growth          75.7
7  C=C1C(=O)O[C@H]2[C@H]1CC/C(Cn1cc(CNC(=O)Cc3cn(C(=O)c4ccc(Cl)cc4)c4ccc(OC)cc34)nn1)=C\CC[C@@]1(C)O[C@@H]21      growth          14.2
8             CCN(CC)CCCNc1nccc2ccc(Cl)cc12      growth          96.8
9  Nc1cccc(-c2nc3sccn3c2-c2ccnc(NCCNS(=O)(=O)c3ccc(C(F)(F)F)cc3)n2)c1      growth          52.4
